Origin of measurements: patent US9120749B2

system: T47D cells; test: Cell-based assay: anti-proliferative activity, Cell Counting Kit-8, 72 hours (T47D); conditions: Homo sapiens, T47D, 72 h
Where a name gives a salt, the structure may show the parent alone.
measure: IC50

> print(dat)
                                   compound  assayresult
1  CCC(=O)c1cnc2ccc(-c3cc(F)c(O)c(Cl)c3)cc2c1Nc1ccc(CN(C)C)cc1     0.074 µM
2  COc1cc(-c2ccc3ncc(C(=O)C4CC4)c(Nc4ccc(N5CCC[C@@H](N)C5)nc4)c3c2)cc(Cl)c1O     0.087 µM
3  CC(=O)c1cnc2ccc(-c3cc(F)c(O)c(Cl)c3)cc2c1N[C@H]1CC[C@H](CN2CCNCC2)CC1 [Example 783, dihydrochloride]     0.027 µM
4  CN(C)Cc1ccc(-c2c(C(=O)C3CC3)cnc3ccc(-c4cc(Cl)c(O)c(Cl)c4)cc23)cc1      0.97 µM

* * *

Measured IC50 values are reported for all entries that follow.
test system: HT-1197 cells; test: Cell-based assay: anti-proliferative activity, Cell Counting Kit-8, 72 hours (HT-1197, negative control without MELK expression); details: Homo sapiens, HT1197, 72 h, HT1197 cells (negative control), 72 hours
Counter-ions that a name gives are not always drawn.
measure: IC50 (µM)

> print(dat)
                                    compound  measurementunits  assayresult
 1  COc1cc(-c2ccc3ncc(C(=O)C4CC4)c(Nc4ccc(N)nc4)c3c2)cc(Cl)c1O                µM          1.4
 2  CN(C)C[C@H]1CC[C@@H](Nc2c(C(=O)C3CC3)cnc3ccc(-c4cc(Cl)c(O)c(Cl)c4)cc23)CC1                µM          1.2
 3  COc1cc(-c2ccc3ncc(C(=O)C4CC4)c(Nc4cnc(N5CCC(N)CC5)nc4)c3c2)cc(Cl)c1O                µM          2.1
 4  O=C(c1cnc2ccc(-c3ccc(O)c(Cl)c3)cc2c1Nc1cnn(C2CCNCC2)c1)C1CC1                µM          1.6
 5  CC(=O)c1cnc2ccc(-c3cc(F)c(O)c(Cl)c3)cc2c1N[C@H]1CC[C@H](NC(=O)[C@@H](N)C(C)(C)C)CC1 [Example 914, hydrochloride]                µM          3.6
 6  CN(C)Cc1ccc(Nc2c(C(=O)C3CC3)cnc3cc(F)c(-c4cc(F)c(O)c(Cl)c4)cc23)cc1                µM          1.1
 7  COc1cc(-c2cc3c(Nc4ccc(N5CCNCC5)nc4)c(C(=O)C4CC4)cnc3cc2F)cc(Cl)c1O                µM            8
 8  CN[C@H]1CC[C@H](Nc2c(C(=O)C3CC3)cnc3ccc(-c4cnc(C#N)nc4)cc23)CC1                µM          1.1
 9  CC(=O)c1cnc2ccc(-c3cc(F)c(O)c(Cl)c3)cc2c1N[C@H]1CC[C@H](N)CC1                µM           10
10  CN(C)Cc1ccc(Nc2c(C(=O)C3CC3)cnc3c(F)cc(-c4cc(Cl)c(O)c(Cl)c4)cc23)cc1                µM            9
11  O=C(c1cnc2ccc(-c3cc(F)c(O)c(Cl)c3)cc2c1N[C@H]1CC[C@H](CN2CC[C@@H](F)C2)CC1)C1CC1                µM         0.16
12  CN(C)C[C@H]1CC[C@H](Nc2c(C(=O)C3CCCC3)cnc3ccc(-c4cc(Cl)c(O)c(Cl)c4)cc23)CC1 [Example 917, hydrochloride]                µM          3.3
13  Nc1ccc(Nc2c(C(=O)C3CC3)cnc3ccc(-c4cc(F)c(O)c(Cl)c4)cc23)cn1                µM          1.4
14  O=C(c1cnc2ccc(-c3cc(Cl)c(O)c(Cl)c3)cc2c1N[C@H]1C[C@H]2CC[C@@H](C1)N2)C1CC1                µM          4.1

* * *

target: UniProt Q14680; assay: Kinase assay: MELK activity, phosphorylation of FITC-labeled histone H3 peptide measured by IMAP fluorescence polarization; assay type: biochemical; conditions: read-out: IC50 (μM) (kinase assay)
Measured IC50 values are reported for all entries that follow.
measure: IC50 (µM)

> print(dat)
                             moleculesmiles  assayresult
1  CC(C)C(=O)c1cnc2ccc(-c3cc(Cl)c(O)c(Cl)c3)cc2c1N[C@H]1CC[C@H](CN(C)C)CC1       0.0022
2  CN(CCO)C[C@H]1CC[C@H](Nc2c(C(=O)C3CC3)cnc3ccc(-c4cc(Cl)c(O)c(Cl)c4)cc23)CC1       0.0008
3  CN[C@H]1CC[C@H](Nc2c(C(C)=O)cnc3ccc(-c4cc(F)c(O)c(Cl)c4)cc23)CC1         0.11
4  CN[C@H]1CC[C@H](Nc2c(C(=O)C3CC3)cnc3ccc(-c4cc(Cl)c(O)c(Cl)c4)cc23)CC1       0.0019

* * *

target: MELK (Homo sapiens, UniProt Q14680); test: Kinase assay: MELK activity, phosphorylation of FITC-labeled histone H3 peptide measured by IMAP fluorescence polarization; type: biochemical; conditions: read-out: IC50 (μM) (kinase assay)
Sequence (Q14680 whole entry, looked up): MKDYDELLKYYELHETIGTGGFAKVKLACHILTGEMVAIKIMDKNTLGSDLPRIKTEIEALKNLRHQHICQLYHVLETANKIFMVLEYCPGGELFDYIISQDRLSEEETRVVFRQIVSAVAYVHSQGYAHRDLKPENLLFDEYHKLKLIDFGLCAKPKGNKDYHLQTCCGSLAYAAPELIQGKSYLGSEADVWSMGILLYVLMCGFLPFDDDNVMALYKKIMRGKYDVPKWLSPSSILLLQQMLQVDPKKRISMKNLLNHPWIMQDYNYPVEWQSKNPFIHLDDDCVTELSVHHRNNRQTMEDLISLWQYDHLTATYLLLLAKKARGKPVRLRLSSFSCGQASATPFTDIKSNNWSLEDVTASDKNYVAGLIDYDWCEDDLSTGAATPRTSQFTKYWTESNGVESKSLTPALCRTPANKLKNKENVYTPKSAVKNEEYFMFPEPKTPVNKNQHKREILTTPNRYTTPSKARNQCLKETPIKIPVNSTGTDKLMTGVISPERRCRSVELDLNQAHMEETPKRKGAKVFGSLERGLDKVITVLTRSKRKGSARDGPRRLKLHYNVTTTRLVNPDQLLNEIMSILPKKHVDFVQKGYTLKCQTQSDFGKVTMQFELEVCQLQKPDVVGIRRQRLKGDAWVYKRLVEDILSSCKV
Structures can show the parent of a compound that is named as a salt.
Rule: IC50 below 0.003 µM gives true (1). Equal to or above 0.003 µM gives false (0).

compound	targetEntity	labelClass
CC(=O)c1cnc2ccc(-c3cc(F)c(O)c(Cl)c3)cc2c1Nc1cccc(CCN2CCCC2)c1 [Example 803]	MELK (Homo sapiens, UniProt Q14680)	false (0)
CN1CCN(c2ncc(-c3c(C(=O)C4CC4)cnc4ccc(-c5cc(Cl)c(O)c(Cl)c5)cc34)cn2)CC1 [Example 479]	MELK (Homo sapiens, UniProt Q14680)	false (0)
CC(=O)c1cnc2ccc(-c3cc(Cl)c(O)c(Cl)c3)cc2c1Nc1ccc(N2CCCC(N)C2)nc1 (stereo not shown) [Example 681]	MELK (Homo sapiens, UniProt Q14680)	true (1)
O=C(c1cnc2cc(F)c(-c3cc(Cl)c(O)c(Cl)c3)cc2c1Nc1ccc(N2CCNCC2)nc1)C1CC1 [Example 559]	MELK (Homo sapiens, UniProt Q14680)	false (0)
CCCC(=O)c1cnc2ccc(-c3cc(Cl)c(O)c(Cl)c3)cc2c1N[C@H]1CC[C@H](N)CC1 [Example 535]	MELK (Homo sapiens, UniProt Q14680)	true (1)
O=C(c1cnc2ccc(-c3cc(F)c(O)c(Cl)c3)cc2c1Nc1ccc(Cn2ccnc2)cc1)C1CC1 [Example 489]	MELK (Homo sapiens, UniProt Q14680)	false (0)
CC(=O)c1cnc2ccc(-c3cc(F)c(O)c(Cl)c3)cc2c1N[C@H]1CC[C@H](CCN(C)C)CC1 [Example 741]	MELK (Homo sapiens, UniProt Q14680)	false (0)
CC(=O)c1cnc2ccc(-c3cc(Cl)c(O)c(Cl)c3)cc2c1N[C@H]1CC[C@H](CN2CCC[C@H]2CO)CC1 [Example 792]	MELK (Homo sapiens, UniProt Q14680)	true (1)
CCCC(=O)c1cnc2ccc(-c3cc(Cl)c(O)c(OC)c3)cc2c1N[C@H]1CC[C@H](CN(C)C)CC1 [Example 607]	MELK (Homo sapiens, UniProt Q14680)	false (0)
CC(=O)c1cnc2ccc(-c3cc(Cl)c(O)c(Cl)c3)cc2c1N[C@H]1CC[C@H](CN2CCCC2)CC1 [Example 767]	MELK (Homo sapiens, UniProt Q14680)	true (1)
C[S+]([O-])c1cnc2ccc(-c3ccc(O)c(Cl)c3)cc2c1N[C@H]1CC[C@H](N)CC1 (stereo partly shown) [Example 499]	MELK (Homo sapiens, UniProt Q14680)	false (0)
CC(=O)c1cnc2ccc(-c3cc(F)c(O)c(Cl)c3)cc2c1N[C@H]1CC[C@H](CN2CCC(N)C2)CC1 (stereo partly shown) [Example 786, hydrochloride]	MELK (Homo sapiens, UniProt Q14680)	false (0)
CC(=O)c1cnc2ccc(-c3cc(F)c(O)c(Cl)c3)cc2c1Nc1ccc(NCCN(C)C)nc1 [Example 762]	MELK (Homo sapiens, UniProt Q14680)	false (0)

* * *

target: MELK (Homo sapiens); experiment: Kinase assay: MELK activity, phosphorylation of FITC-labeled histone H3 peptide measured by IMAP fluorescence polarization; assay type: biochemical; settings: 50 micro-M ATP, FITC-labeled histone H3 peptide substrate, IMAP fluorescence polarization; hydrochloride; read-out: IC50 (μM) (kinase assay)
Structures can show the parent of a compound that is named as a salt.
measure: IC50 (µM)

> print(dat)
                                   molecule         targetentity  assayresult
1  CN(C)Cc1ccc(Nc2c(S(C)(=O)=O)cnc3ccc(-c4cc(Cl)c(O)c(Cl)c4)cc23)cc1 [Example 401, hydrochloride]  MELK (Homo sapiens)       0.0055
